Biological target: Pyrazinamidase/nicotinamidase PncA (Mycobacterium tuberculosis, UniProt Q50575)
Sequence (Q50575 whole entry): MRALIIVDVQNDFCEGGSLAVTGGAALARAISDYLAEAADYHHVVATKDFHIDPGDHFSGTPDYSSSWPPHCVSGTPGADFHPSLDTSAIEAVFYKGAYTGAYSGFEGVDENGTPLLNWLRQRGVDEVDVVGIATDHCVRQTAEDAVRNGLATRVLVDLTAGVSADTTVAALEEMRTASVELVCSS
# reported pKi; entries follow
Just so you know, pKi here is -log10 of the concentration in molar units; reply with that number alone.

Sample answers from the record:
{"structure as smiles": "O=C(c1cccnc1)C(F)(F)F", "numeric result": 3.38}
{"structure as smiles": "N#Cc1cnccn1", "numeric result": 4.21}
{"structure as smiles": "N#Cc1cccnc1", "numeric result": 3.85}

Item `O=Cc1cnccn1` has what recorded pKi?
5.82

Which pKi reading was recorded for the molecule `OCc1cccnc1` ?
4.20

# get_value(readout='pKi', item= `O=Cc1cccnc1` )
6.52
